biological target: C. elegans Slo-1a (Caenorhabditis elegans, UniProt Q95V25); assay: In vitro assay 1: C. elegans Slo-1a, action at a recombinant C. elegans CHO cell line (membrane potential measurement)
Sequence (Q95V25 whole entry): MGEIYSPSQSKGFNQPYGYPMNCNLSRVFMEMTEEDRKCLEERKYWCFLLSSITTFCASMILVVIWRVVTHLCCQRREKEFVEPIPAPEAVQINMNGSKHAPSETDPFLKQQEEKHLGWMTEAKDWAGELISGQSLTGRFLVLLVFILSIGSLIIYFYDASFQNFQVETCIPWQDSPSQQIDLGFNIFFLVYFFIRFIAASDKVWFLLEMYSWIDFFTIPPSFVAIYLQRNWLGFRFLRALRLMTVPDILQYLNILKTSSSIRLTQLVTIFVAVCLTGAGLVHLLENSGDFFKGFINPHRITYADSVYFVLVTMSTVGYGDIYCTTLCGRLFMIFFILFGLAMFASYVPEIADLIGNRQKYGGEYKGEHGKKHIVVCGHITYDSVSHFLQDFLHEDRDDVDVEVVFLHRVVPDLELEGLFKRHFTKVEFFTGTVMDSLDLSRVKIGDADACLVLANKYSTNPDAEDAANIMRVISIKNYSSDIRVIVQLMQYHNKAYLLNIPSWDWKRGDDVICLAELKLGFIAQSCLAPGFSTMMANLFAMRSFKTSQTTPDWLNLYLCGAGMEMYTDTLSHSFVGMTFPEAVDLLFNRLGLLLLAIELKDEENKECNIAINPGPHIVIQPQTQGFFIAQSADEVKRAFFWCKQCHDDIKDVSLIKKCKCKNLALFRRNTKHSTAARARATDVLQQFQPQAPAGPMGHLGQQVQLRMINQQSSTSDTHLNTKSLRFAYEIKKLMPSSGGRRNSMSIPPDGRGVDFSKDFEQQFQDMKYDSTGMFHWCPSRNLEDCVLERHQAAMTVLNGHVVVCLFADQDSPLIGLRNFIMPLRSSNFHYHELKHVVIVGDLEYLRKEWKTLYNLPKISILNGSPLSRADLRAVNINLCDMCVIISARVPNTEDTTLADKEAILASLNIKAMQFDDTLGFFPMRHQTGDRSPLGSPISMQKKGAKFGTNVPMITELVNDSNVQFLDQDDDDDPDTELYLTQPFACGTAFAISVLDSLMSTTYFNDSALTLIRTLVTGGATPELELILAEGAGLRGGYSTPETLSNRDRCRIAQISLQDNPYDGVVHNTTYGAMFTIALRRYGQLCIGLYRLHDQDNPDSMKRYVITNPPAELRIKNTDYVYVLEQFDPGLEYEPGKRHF
quantity.name: pEC50
Answer as the number alone; pEC50 is minus log10 of concentration in mol/L.

Worked examples follow.
Cc1nn2c(Cc3ccc(F)cc3)c(C(=O)N[C@H]3CCc4ccccc43)cnc2c1-c1c(F)cccc1Cl :: 5.70
Cc1nn2c(C(C)C)c(C(=O)N[C@H]3CCOc4ccccc43)cnc2c1-c1c(Cl)cccc1Cl :: 8.20
Cc1nn2c(N3CCOCC3)c(C(=O)N[C@H]3CCOc4ccccc43)cnc2c1-c1cccc(C(F)(F)F)c1Cl :: 9.00
Cc1nn2c(C(C)C)c(C(=O)N[C@H]3CCOc4ccccc43)cnc2c1-c1cccc(F)c1 :: 7.80
Cc1nn2c(N3CCOCC3)c(C(=O)N[C@H]3CCOc4ccccc43)cnc2c1-c1cccc(F)c1F :: 8.50

Entry under review: Cc1nn2c(C(C)C)c(C(=O)N[C@H]3CCCc4ccccc43)cnc2c1-c1cccc(F)c1 . Reported pEC50?
7.40

Entry under review: CCN(C)c1cccc(-c2c(C)nn3c(C(C)C)c(C(=O)N[C@H]4CCc5ccccc54)cnc23)c1 . Reported pEC50?
7.40

Entry under review: COc1cc(-c2c(C)nn3c(C(C)C)c(C(=O)N[C@H]4CCOc5ccccc54)cnc23)cc(F)c1F . Reported pEC50?
8.20

Entry under review: Cc1nn2c(C(C)C)c(C(=O)N[C@H]3CCc4ccccc43)cnc2c1-c1cccc(N2CCC2)c1 . Reported pEC50?
7.80

* * *

assay: log P by HPLC on reversed phase columns (Method L0; [a] acidic, [b] neutral range)
quantity.name: chromatographic logP

Worked examples follow.
CC(C)c1c(C(=O)N[C@H]2CCc3ccccc32)cnc2c(-c3ccc(Cl)cc3)c(Cl)nn12 [Example 73] :: 5.47
CSCc1cccc(-c2c(C)nn3c(C(C)C)c(C(=O)N[C@H]4CCc5ccccc54)cnc23)c1 [Example 388] :: 5
Cc1nn2c(C(C)C)c(C(=O)N[C@H]3CCCc4ccccc43)cnc2c1-c1cc(Cl)cc(C(F)(F)F)c1 [Example 124] :: 6.36
Cc1nn2c(C(C)C)c(C(=O)N[C@H]3CCOc4ccccc43)cnc2c1-c1cc(F)ccc1F [Example 121] :: 4.41

Entry under review: Cc1nn2c(C(C)C)c(C(=O)N[C@H]3CCc4ccccc43)cnc2c1-c1cccc(NC(=O)C(F)(F)F)c1 [Example 315] . Reported chromatographic logP?
4.28

Entry under review: Cc1nn2c(C(C)C)c(C(=O)N[C@H]3CCc4ccccc43)cnc2c1-c1cccc(OCC#N)c1 [Example 320] . Reported chromatographic logP?
4.09

Entry under review: Cc1nn2c(N3CCOCC3)c(C(=O)N[C@H]3CCOc4ccccc43)cnc2c1-c1cccc(Cl)c1Cl [Example 517] . Reported chromatographic logP?
3.51

* * *

assay: log P by HPLC on reversed phase columns (Method L0; [a] acidic, [b] neutral range)
Mark yes only for chromatographic logP values smaller than 5; exact matches and larger values are no.

Here's what some known entries look like.
Cc1nn2c(C(C)C)c(C(=O)N[C@H]3CCc4ccccc43)cnc2c1-c1cccc(NS(C)(=O)=O)c1 :: yes
Cc1nn2c(C(C)C)c(C(=O)N[C@H]3CCc4ccccc43)cnc2c1-c1cccc(Br)c1 :: no
Cc1nn2c(C(C)C)c(C(=O)N[C@H]3CCOc4ccccc43)cnc2c1-c1ncc(Cl)cc1Cl :: yes

I wonder whether Cc1nn2c(C(C)C)c(C(=O)N[C@H]3CCOc4ccccc43)cnc2c1-c1cccc(F)c1F has chromatographic logP below 5. Can you tell?
yes
